Entry source: paper PMC12467535

MEASUREMENT_DESCRIPTION: in vivo
APPLIED_CONDITIONS: Dutch-belted, rabbit, 100 ug/eye, Average concentration of ONL1204 in RPE/choroid
No end group written: not given here.
RECORDED_METRIC: tissue level at time at 672 h (ng/g)
Kindly provide the numeric value in ng/g only, without the unit symbol.

Problem: Which value of tissue level at time at 672 h has been reported for HHIYLGAVNYIY-NH2 [ONL1204] in the records?
Result: 40.6

* * *

APPLIED_CONDITIONS: rabbit, in vivo, 100 ug, calculated vitreous half-life
No end group written: not given here.
RECORDED_METRIC: half-life
Numeric answer plus unit only.

Problem: Could you tell me which half-life is on file for HHIYLGAVNYIY-NH2 [ONL1204] ?
Result: 124 days

* * *

MEASUREMENT_DESCRIPTION: in vivo
APPLIED_CONDITIONS: Dutch-belted, rabbit, 10 ug/eye, Average concentration of ONL1204 in retina
No end group written: not given here.
RECORDED_METRIC: tissue level at time at 1344 h
A complete answer gives the number followed by the unit.

Problem: I'd like to know its tissue level at time at 1344 h. The substance in question is HHIYLGAVNYIY-NH2 [ONL1204]
Result: 14.3 ng/g

* * *

MEASUREMENT_DESCRIPTION: in vivo
APPLIED_CONDITIONS: Dutch-belted, rabbit, 50 ug/eye, Average concentration of ONL1204 in RPE/choroid
No end group written: not given here.
RECORDED_METRIC: tissue level at time at 1344 h
State the value, then name its unit.

Problem: Report tissue level at time at 1344 h for HHIYLGAVNYIY-NH2 [ONL1204] please.
Result: 61.8 ng/g

* * *

MEASUREMENT_DESCRIPTION: in vivo
APPLIED_CONDITIONS: Dutch-belted, rabbit, 10 ug/eye, Average concentration of ONL1204 in RPE/choroid
No end group written: not given here.
RECORDED_METRIC: tissue level at time at 1992 h (ng/g)
Unit ng/g implied. Number only.

Problem: I'd like to know its tissue level at time at 1992 h. The substance in question is HHIYLGAVNYIY-NH2 [ONL1204]
Result: 213
